# Test system: A549
# ASSAY_PROTOCOL: Cytotoxicity against human A549 cells assessed as induction of cell death incubated for 2 days by MTT assay
# Format: functional, cell-based
# TEST_CONTEXT: A549, 48 h
ENDPOINT_NAME: IC50 (µM)
Only the number, expressed in µM, is required.

Q: Supply reported IC50 belonging to this compound: `C[C@H]1O[C@@H](O[C@H]2CC[C@@]3(C)[C@@H](CC[C@]4(C)[C@@H]3C=C[C@]35OC[C@@]6(CCC(C)(C)C[C@H]63)[C@H](O)C[C@]54C)[C@]2(C)CO)[C@H](O)[C@@H](O[C@@H]2O[C@H](CO)[C@@H](O)[C@H](O)[C@H]2O)[C@H]1O`
Ans: 30.8
